# Assay target: Cbl-b (aa36-427) (Homo sapiens, UniProt Q13191)
# Construct: Cbl-b (aa36-427, in-house); made in house
# Sequence (Q13191 36-427): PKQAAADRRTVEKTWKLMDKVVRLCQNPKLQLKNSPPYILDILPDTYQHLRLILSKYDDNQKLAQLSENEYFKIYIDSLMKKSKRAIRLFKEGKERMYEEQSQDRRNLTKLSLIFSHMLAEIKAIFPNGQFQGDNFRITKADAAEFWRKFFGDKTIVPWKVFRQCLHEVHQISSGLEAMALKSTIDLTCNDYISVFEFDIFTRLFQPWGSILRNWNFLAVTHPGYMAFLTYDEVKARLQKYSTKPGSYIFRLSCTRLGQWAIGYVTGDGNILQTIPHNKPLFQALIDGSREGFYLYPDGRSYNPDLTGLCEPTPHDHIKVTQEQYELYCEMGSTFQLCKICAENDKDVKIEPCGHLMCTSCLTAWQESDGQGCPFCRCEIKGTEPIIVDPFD
# Measurement description: Biotin-labelled Cbl-b biochemical assay (CBLB/E2-Ub binding, HTRF)
# Assay setup: 5.0 nM biotin labelled Cbl-b
Parameter: IC50

C[C@H]1CCCN(Cc2cc(C(=O)Nc3cccc([C@]4(c5nncn5C)C[C@@H](C)C4)c3)nc3c2CC[C@@H]3C)C1 (single isomer, unassigned) [Compound C4] yielded IC50 of 16.2 nM

The recorded IC50 for C[C@H]1CCCN(Cc2cc(C(=O)Nc3cccc([C@]4(c5nncn5C)C[C@@H](C)C4)c3)nc3c2CC[C@@H]3C)C1 (single isomer, unassigned) [Compound C3] is 4.8 nM

Per the records, this compound ( C[C@H]1CCCN(Cc2cc(C(=O)Nc3cccc([C@]4(c5nncn5C)C[C@@H](CC#N)C4)c3)c3nccn3c2)C1 ) has IC50 equal to 5.8 nM

Form: compound = C[C@H]1CCCN(Cc2cc(C(=O)Nc3cccc([C@]4(c5nncn5C)C[C@H](C)C4)c3)c3nccn3c2)C1 ; IC50 = 3.26 nM

---

# Assay target: Cbl (aa49-434) (Homo sapiens, UniProt P22681)
# Construct: Cbl (aa49-434, in-house); made in house
# Measurement description: Biotin-labelled Cbl biochemical assay (CBL/E2-Ub binding, HTRF)
# Assay setup: 5.0 nM biotin labelled Cbl
Parameter: IC50
The reply should read as a number followed by its unit.

Item: C[C@H]1CCCN(Cc2cc(C(=O)Nc3cccc([C@]4(c5nncn5C)C[C@@H](C)C4)c3)nc3c2CC[C@@H]3C)C1 (single isomer, unassigned) [Compound C3] | IC50: 21.7 nM

IC50 recorded for this compound, CC1CCc2c(CN3CCC[C@H](C)C3)cc(C(=O)Nc3cccc([C@]4(c5nncn5C)C[C@@H](C)C4)c3)nc21 (stereo partly shown) , is 28.8 nM

The reported value for CC1CC(c2cccc(NC(=O)c3cc(CN4CCC[C@H](C)C4)c4c(n3)CCC4)c2)(c2nncn2C)C1 (stereo partly shown) in terms of IC50 is 60 nM

Value of measured IC50 for the entry C[C@H]1CCCN(Cc2cc(C(=O)Nc3cccc([C@]4(c5nncn5C)C[C@@H](C)C4)c3)nc3c2CC[C@@H]3C)C1 (single isomer, unassigned) [Compound C4] : 76 nM

---

# Assay target: Cbl (aa49-434) (Homo sapiens)
# Construct: Cbl (aa49-434, in-house); made in house
# Measurement description: Co-expressed Cbl with BirA biochemical assay (CBL/E2-Ub binding, HTRF)
# Assay setup: 0.6 nM Cbl co-expressed with BirA, read-out: co-express CBL/E2-Ub-binding assay IC50
pIC50: −log10 of the molar value.
Respond with YES for pIC50 values of 8 and above, NO for values below.

Exam item: Item Cn1cnnc1[C@]1(c2cccc(NC(=O)c3cc(CNCC4(F)CCC4)cn4ccnc34)c2)C[C@H](CC#N)C1 with pIC50 of 8 or above?
Marked response: YES

Exam item: Does the compound CC(C)CNCc1cc(C(=O)Nc2cncc([C@]3(c4nncn4C)C[C@@H](C)C3)c2)c2ncc(F)n2c1 have recorded pIC50 that is 8 or more?
Marked response: YES

Exam item: Does pIC50 meet or surpass 8 for Cn1cnnc1[C@]1(c2cccc(NC(=O)c3cc(CNCC4CCCC4)c4c(n3)C(C)(C)CN4)c2)C[C@H](C)C1 ?
Marked response: YES

Exam item: Is pIC50 for CCn1cnnc1[C@]1(c2cccc(NC(=O)c3cc(CNC4(C)CC4)cn4ccnc34)c2)C[C@H](C)C1 at or above 8?
Marked response: NO

Exam item: Given the entry Cc1cnc2c(C(=O)Nc3cncc([C@]4(c5nncn5C)C[C@@H](C)C4)c3)cc(CNCC3CCC3)cn12 , answer whether its pIC50 meets or surpasses 8.
Marked response: YES

Exam item: Check if pIC50 >= 8 (inclusive). Item: C[C@H](NCc1cc(C(=O)Nc2cccc([C@]3(c4nncn4C)C[C@@H](CC#N)C3)c2)nc2c1CCC2(C)C)C1CCC1
Marked response: YES

---

Consider the following compounds; for each one, report its pIC50.
# Assay target: Cbl (aa49-434) (Homo sapiens, UniProt P22681)
# Construct: Cbl (aa49-434, in-house); made in house
# Sequence (P22681 49-434): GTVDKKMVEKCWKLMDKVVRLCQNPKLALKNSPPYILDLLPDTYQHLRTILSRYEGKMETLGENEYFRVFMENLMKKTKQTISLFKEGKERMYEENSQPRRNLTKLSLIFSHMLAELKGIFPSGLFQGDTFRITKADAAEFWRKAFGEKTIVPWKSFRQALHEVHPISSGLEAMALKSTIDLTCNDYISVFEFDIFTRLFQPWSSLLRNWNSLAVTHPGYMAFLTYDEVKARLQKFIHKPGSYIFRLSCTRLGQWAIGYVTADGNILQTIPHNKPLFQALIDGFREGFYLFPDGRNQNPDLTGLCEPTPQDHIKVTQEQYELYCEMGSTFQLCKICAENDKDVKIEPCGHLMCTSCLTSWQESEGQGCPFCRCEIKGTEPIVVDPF
# Measurement description: Co-expressed Cbl with BirA biochemical assay (CBL/E2-Ub binding, HTRF)
# Assay setup: 0.6 nM Cbl co-expressed with BirA, read-out: co-express CBL/E2-Ub-binding assay IC50
Convention used: pIC50 is expressed as -log10 of the molar concentration.

Lookup result for Cn1cnnc1[C@]1(c2cncc(NC(=O)c3cc(CNC4(C)CCC4)c4[nH]ccc4n3)c2)C[C@H](C)C1 ; measured pIC50: 8.03

pIC50 recorded for this compound, CC(C)CNCc1cc(C(=O)Nc2cccc([C@]3(c4nncn4C)C[C@@H](C)C3)c2)nc2cc[nH]c12 , is 8.68

Entry Cn1cnnc1[C@]1(c2cncc(NC(=O)c3cc(CNCC4CCC4)c4[nH]ccc4n3)c2)C[C@H](C)C1 , pIC50 reported as 8.68

Summary for this compound, C[C@H](NCc1cc(C(=O)Nc2cccc([C@]3(c4nncn4C)C[C@@H](C)C3)c2)nc2c1OCC2(C)C)C1CC1 : pIC50 is 7.61

---

Assign IC50 to each entry below.
# Assay target: Cbl-b (aa36-427) (Homo sapiens, UniProt Q13191)
# Construct: Cbl-b (aa36-427, in-house); made in house
# Measurement description: Co-expressed Cbl-b with BirA biochemical assay (CBLB/E2-Ub binding, HTRF)
# Assay setup: 0.6 nM Cbl-b co-expressed with BirA, HTRF; read-out: co-express CBLB/E2-Ub-binding assay IC50
Express your answer in nM, writing the number without its unit.

IC50 for Cn1cnnc1[C@]1(c2cncc(NC(=O)c3cc(CNC4(C)CC4)c4[nH]ccc4n3)c2)C[C@H](C)C1 [Compound B44] is 1.9

Form: molecule = C[C@H]1CCCN(Cc2cc(C(=O)Nc3cccc([C@]4(c5nncn5C)C[C@@H](CC#N)C4)c3)nc3cc[nH]c23)C1 [Compound B5] ; IC50 = 1.6

Just so you know, measured IC50 for C[C@H](NCc1cc(C(=O)Nc2cccc([C@]3(c4nncn4C)C[C@@H](CC#N)C3)c2)c2ncc(Cl)n2c1)C1CCCC1 [Compound A34] came out at 2.6

---

# Assay target: Cbl (aa49-434) (Homo sapiens, UniProt P22681)
# Construct: Cbl (aa49-434, in-house); made in house
# Sequence (P22681 49-434): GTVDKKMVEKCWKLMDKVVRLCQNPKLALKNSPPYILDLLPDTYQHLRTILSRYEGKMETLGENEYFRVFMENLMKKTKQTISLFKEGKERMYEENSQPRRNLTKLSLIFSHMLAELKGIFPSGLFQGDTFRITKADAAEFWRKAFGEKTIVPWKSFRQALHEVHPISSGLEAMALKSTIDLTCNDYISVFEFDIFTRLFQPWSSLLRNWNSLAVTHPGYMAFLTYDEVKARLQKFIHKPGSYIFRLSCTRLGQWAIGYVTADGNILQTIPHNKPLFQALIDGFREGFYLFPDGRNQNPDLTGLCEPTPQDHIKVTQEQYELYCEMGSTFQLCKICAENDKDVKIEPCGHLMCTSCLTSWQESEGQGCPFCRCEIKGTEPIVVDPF
# Measurement description: Co-expressed Cbl with BirA biochemical assay (CBL/E2-Ub binding, HTRF)
# Assay setup: 0.6 nM Cbl co-expressed with BirA, read-out: co-express CBL/E2-Ub-binding assay IC50
Parameter: IC50

Record summary for Cn1cnnc1[C@]1(c2cccc(NC(=O)c3cc(CNCC4CCCC4)cn4c(Cl)cnc34)c2)C[C@H](C)C1 : reported IC50 = 2.9 nM

The reported value for Cn1cnnc1[C@]1(c2cccc(NC(=O)c3cc(CNCC4CCC4)cn4ccnc34)c2)C[C@H](CC#N)C1 in terms of IC50 is 12 nM

// sample Cn1cnnc1[C@]1(c2cccc(NC(=O)c3cc(CNC4(C)CC4)cn4c(F)cnc34)c2)C[C@H](C)C1 , its IC50 was 3.5 nM

Documented IC50 of Cn1cnnc1[C@]1(c2cncc(NC(=O)c3cc(CNCC4CCC4)cn4c(F)cnc34)c2)C[C@H](C)C1 : 0.9 nM
